Reference for the values: ChEMBL document CHEMBL4814076

- measured.on: UniProtKB Q06187
- method.description: Inhibition of BTK in human whole blood assessed as inhibition of IgM-induced B-cell activation
- Type: tissue-based
endpoint: pIC50
Please report pIC50 as the negative decimal logarithm of the molar concentration, giving only the number.

Known value: UniProtKB Q06187 pIC50 of the compound `C=CC(=O)N1CC[C@@H](NC(=O)c2sc3nccc4c3c2NC(=O)N4c2ccc(Oc3ccccc3)cc2C)C1` equals 7.08

* * *

- measured.on: Serine/threonine-protein kinase B-raf (Homo sapiens)
- Sequence (P15056 whole entry): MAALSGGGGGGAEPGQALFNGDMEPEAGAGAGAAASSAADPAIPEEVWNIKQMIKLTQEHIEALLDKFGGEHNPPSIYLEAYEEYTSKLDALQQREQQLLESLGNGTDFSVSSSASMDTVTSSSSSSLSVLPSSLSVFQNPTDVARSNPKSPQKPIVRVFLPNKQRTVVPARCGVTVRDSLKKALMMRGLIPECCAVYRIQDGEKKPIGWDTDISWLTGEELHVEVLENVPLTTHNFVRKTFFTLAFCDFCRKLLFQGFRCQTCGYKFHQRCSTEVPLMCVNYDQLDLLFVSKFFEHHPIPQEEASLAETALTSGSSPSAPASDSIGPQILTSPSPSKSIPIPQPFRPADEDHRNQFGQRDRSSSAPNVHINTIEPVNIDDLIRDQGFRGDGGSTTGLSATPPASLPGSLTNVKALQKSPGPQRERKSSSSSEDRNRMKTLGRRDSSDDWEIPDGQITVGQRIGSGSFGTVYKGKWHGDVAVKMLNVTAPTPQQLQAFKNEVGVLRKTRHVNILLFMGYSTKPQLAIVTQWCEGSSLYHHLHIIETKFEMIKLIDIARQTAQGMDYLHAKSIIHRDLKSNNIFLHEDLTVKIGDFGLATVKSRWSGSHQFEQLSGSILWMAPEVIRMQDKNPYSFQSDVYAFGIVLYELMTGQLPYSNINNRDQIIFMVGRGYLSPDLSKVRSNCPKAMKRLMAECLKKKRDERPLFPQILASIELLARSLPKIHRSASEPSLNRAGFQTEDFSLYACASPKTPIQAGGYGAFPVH
- method.description: Inhibition of recombinant human B-RAF (416 to end residues) using myelin basic protein as substrate incubated for 40 mins in presence of [gamma33P]ATP by scintillation counting method
endpoint: pIC50
A value of pIC50 is the negative decimal logarithm of a concentration given in moles per litre.

Record `C=CC(=O)N1CC[C@@H](NC(=O)c2sc3nccc4c3c2NC(=O)N4c2ccc(Oc3ccccc3)cc2C)C1` / Serine/threonine-protein kinase B-raf (Homo sapiens), pIC50 recorded as 5.11

* * *

- method.description: Oral bioavailability in Sprague-Dawley rat at 5 mg/kg measured upto 24 hrs by LC-MS/MS analysis
- Format: ADME, organism-based
- conditions.used: in vivo
endpoint: bioavailability (%)
// note: answer is a bare numeric in %

Looking up `C=CC(=O)N1CC[C@@H](NC(=O)c2sc3nccc4c3c2NC(=O)N4c2ccc(Oc3ccccc3)cc2C)C1` , I found its bioavailability recorded as 29.7

* * *

- measured.on: Tyrosine-protein kinase BTK (Mus musculus, UniProt P35991)
- Sequence (P35991 whole entry): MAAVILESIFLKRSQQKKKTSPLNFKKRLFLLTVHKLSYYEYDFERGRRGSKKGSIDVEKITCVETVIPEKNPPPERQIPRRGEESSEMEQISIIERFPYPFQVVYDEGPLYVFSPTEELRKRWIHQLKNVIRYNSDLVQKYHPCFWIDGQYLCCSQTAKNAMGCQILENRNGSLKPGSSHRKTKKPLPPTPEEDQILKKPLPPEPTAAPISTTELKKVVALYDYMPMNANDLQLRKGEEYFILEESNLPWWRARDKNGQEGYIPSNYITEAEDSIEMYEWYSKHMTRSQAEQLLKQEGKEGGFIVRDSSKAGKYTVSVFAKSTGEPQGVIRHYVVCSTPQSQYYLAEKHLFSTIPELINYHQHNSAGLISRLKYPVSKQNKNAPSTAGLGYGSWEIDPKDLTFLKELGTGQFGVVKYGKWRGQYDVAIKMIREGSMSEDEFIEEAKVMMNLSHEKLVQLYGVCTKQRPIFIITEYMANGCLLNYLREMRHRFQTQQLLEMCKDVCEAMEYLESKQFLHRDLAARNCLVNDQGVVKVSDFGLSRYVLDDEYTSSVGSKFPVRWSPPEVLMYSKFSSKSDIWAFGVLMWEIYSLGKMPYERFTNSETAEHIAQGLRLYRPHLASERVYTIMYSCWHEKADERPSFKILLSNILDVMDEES
- method.description: Inhibition of BTK in C57Bl/6 mouse splenocyte assessed as reduction in anti-IgM-induced CD69 expression incubated for 1 hr followed anti-IgM stimulation and measured after overnight by flow cytometry analysis
compounds and their reported IC50
Expressed in µM, but write only the number.

[[record]]
compound = "C=CC(=O)N1CCC[C@@H](NC(=O)c2sc3nccc4c3c2NC(=O)N4c2ccc(OC(C)C)cc2C)C1"
measured_on = "Tyrosine-protein kinase BTK (Mus musculus, UniProt P35991)"
endpoint = "IC50"
result_value = 0.042


Lab note: `C=CC(=O)N1CC(NC(=O)c2sc3nccc4c3c2NC(=O)N4c2ccc(Oc3ccccc3)cc2C)C1` gave IC50 of 0.13

// IC50 value for `C=CC(=O)C[C@@H]1CC[C@@H](NC(=O)c2sc3nccc4c3c2NC(=O)N4c2ccc(Oc3ccccc3)cc2C)C1` : 0.0079

IC50 recorded for this compound, `C=CC(=O)NCCNC(=O)c1sc2nccc3c2c1NC(=O)N3c1ccc(Oc2ccccc2)cc1C` , is 0.0076

# IC50 of C=CC(=O)N1CCC[C@@H](NC(=O)c2sc3nccc4c3c2NC(=O)N4c2ccc(Oc3ccccc3)cc2C)C1 (stereo in doubt; 17) = 0.019

* * *

- method.description: Cmax in Sprague-Dawley rat at 5 mg/kg, po measured upto 24 hrs by LC-MS/MS analysis
- Format: ADME, organism-based
- Set-up: route oral, dose 5 mg/kg, time <=24
- conditions.used: in vivo
endpoint: Cmax (µM)
Expressed in µM, but write only the number.

The recorded Cmax for `C=CC(=O)N1CC[C@@H](NC(=O)c2sc3nccc4c3c2NC(=O)N4c2ccc(Oc3ccccc3)cc2C)C1` is 0.6

* * *

- method.description: Clearance in Beagle dog at 2.5 mg/kg, po or 0.5 mg/kg, iv measured upto 24 hrs by LC-MS/MS analysis
- Type: ADME, organism-based, Canis lupus familiaris
- conditions.used: in vivo
endpoint: clearance (mL/min/kg)
Response body: numeric value in mL/min/kg, unit text excluded.

// field: clearance; key: `C=CC(=O)N1CC[C@@H](NC(=O)c2sc3nccc4c3c2NC(=O)N4c2ccc(Oc3ccccc3)cc2C)C1` ; value = 8

* * *

- measured.on: Tyrosine-protein kinase BTK (Homo sapiens, UniProt Q06187)
- Sequence (Q06187 whole entry): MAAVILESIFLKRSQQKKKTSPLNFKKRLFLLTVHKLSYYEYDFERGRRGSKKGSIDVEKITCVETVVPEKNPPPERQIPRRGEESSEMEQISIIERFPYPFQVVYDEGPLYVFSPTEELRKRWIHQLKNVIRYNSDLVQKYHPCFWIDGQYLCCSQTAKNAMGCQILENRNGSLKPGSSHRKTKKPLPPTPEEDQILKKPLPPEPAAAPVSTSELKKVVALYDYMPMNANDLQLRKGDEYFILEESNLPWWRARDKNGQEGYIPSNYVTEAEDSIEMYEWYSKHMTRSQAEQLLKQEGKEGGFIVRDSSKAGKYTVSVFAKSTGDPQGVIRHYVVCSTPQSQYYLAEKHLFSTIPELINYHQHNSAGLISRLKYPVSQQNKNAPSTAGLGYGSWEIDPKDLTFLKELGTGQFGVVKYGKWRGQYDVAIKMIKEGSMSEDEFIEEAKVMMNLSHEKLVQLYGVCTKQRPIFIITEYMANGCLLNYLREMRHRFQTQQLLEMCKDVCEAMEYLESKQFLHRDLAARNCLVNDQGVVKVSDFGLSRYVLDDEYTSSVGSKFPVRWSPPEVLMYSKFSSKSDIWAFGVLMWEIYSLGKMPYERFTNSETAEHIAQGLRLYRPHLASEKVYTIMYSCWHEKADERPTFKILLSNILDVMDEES
- method.description: Covalent inhibition of recombinant human GST-tagged BTK (2 to 659 end residues) expressed in baculovirus expression system assessed as Kinact/Ki ratio using NH2-KKKAPFSWYLPEEG as substrate measured every 2 mins for 2 hrs in presence of ATP by microplate reader assay
With a cut-off of 100 M⁻¹ s⁻¹, any Ratio strictly below it is called True; any Ratio meeting it or above is called False.

Here's what some known entries look like.
[[record]]
smiles_structure = "C=CC(=O)N1CCC[C@@H](NC(=O)c2sc3nccc4c3c2NC(=O)N4c2ccc(OC(C)C)cc2)C1"
group_label = "True"

[[record]]
smiles_structure = "C=CC(=O)N1CCC[C@@H](NC(=O)c2sc3nccc4c3c2NC(=O)N4c2ccccc2C)C1"
group_label = "False"

[[record]]
smiles_structure = "C=CC(=O)N1CCC[C@@H](NC(=O)c2sc3nccc4c3c2NC(=O)N4c2cc(OC(C)C)ccc2C)C1"
group_label = "True"

[[record]]
smiles_structure = "C=CC(=O)N1CCC[C@@H](NC(=O)c2sc3nccc4c3c2NC(=O)N4c2ccc(Oc3ccccc3)cc2C(F)(F)F)C1"
group_label = "True"

[[record]]
smiles_structure = "C=CC(=O)N1CCC[C@@H](NC(=O)c2sc3nccc4c3c2NC(=O)N4c2ccccc2)C1"
group_label = "False"


From here, focus on the item given below.
Challenge: Determine whether this molecule shows Ratio lower than 100 M⁻¹ s⁻¹ (ties excluded): `C=CC(=O)N[C@H]1CCC[C@H]1NC(=O)c1sc2nccc3c2c1NC(=O)N3c1ccc(Oc2ccccc2)cc1C`
Response given: False

* * *

- measured.on: Tyrosine-protein kinase Lck (Homo sapiens, UniProt P06239)
- Sequence (P06239 whole entry): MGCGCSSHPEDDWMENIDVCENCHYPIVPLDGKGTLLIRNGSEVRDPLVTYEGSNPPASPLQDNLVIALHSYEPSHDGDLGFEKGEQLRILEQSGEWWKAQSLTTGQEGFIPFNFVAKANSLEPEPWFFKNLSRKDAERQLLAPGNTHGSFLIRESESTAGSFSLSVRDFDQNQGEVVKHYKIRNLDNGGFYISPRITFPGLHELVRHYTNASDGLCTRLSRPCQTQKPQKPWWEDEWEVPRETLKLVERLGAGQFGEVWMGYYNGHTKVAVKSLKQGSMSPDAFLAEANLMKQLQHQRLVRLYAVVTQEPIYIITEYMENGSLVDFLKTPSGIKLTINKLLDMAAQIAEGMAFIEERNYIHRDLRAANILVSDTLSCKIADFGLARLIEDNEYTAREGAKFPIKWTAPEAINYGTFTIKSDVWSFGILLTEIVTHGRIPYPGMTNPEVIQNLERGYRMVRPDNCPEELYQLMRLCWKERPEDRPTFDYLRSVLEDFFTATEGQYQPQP
- method.description: Inhibition of recombinant human full length LCK using KVEKIGEGTYGVVYK as substrate incubated for 40 mins in presence of [gamma33P]ATP by scintillation counting method
endpoint: IC50 (nM)
Report only the number, with the unit nM understood.

`C=CC(=O)N1CC[C@@H](NC(=O)c2sc3nccc4c3c2NC(=O)N4c2ccc(Oc3ccccc3)cc2C)C1` has a reported IC50 of 130

* * *

Here the recorded IC50 is given for each entry.
- measured.on: Tyrosine-protein kinase BTK (Mus musculus, UniProt P35991)
- method.description: Inhibition of BTK in C57Bl/6 mouse splenocyte assessed as reduction in anti-IgM-induced CD69 expression incubated for 1 hr followed anti-IgM stimulation and measured after overnight by flow cytometry analysis
Respond with the bare value in nM.

[[record]]
smiles_structure = "C=CC(=O)N1CCC[C@@H](NC(=O)c2sc3nccc4c3c2NC(=O)N4c2ccc(Oc3ccccc3)cc2F)C1"
endpoint = "IC50"
result_value = 20

[[record]]
smiles_structure = "C=CC(=O)N[C@H]1CCC[C@H]1NC(=O)c1sc2nccc3c2c1NC(=O)N3c1ccc(Oc2ccccc2)cc1C"
endpoint = "IC50"
result_value = 80


We now examine a further compound.
For `C=CC(=O)N1CC[C@@H](NC(=O)c2sc3nccc4c3c2NC(=O)N4c2ccc(Oc3ccccc3)cc2C)C1` the compound record lists IC50 as 11
